This collection of values is drawn from patent US20250163016A1.

Provide the recorded half-life for the entries that follow.
assay: Liver microsome stability, rats; format: in vitro ADME; details: rat; Rats liver microsomes, NADPH, 37° C.

Need half-life, item CC(C)(O)Cn1nc(F)c2cc(-c3c(C#N)cc(N4CCC(N)CC4)nc3-c3ccc(C#N)c(F)c3)c(F)cc21
> 2.42 h

Fill blank: measured half-life of the molecule CC(C)(O)Cn1ncc2cc(-c3c(C#N)cc(N4CCC(N)CC4)nc3-c3ccc(C#N)c(F)c3)c(F)cc21 is ____.
> 2.42 h

Using the record for COc1ccc(-c2c(-c3ccc(C#N)c(F)c3)nc(N3CCC(N)CC3)n(C)c2=O)cc1F [CC-90011, reference compound] , report its half-life.
1.33 h

* * *

test: Pharmacokinetics of oral administration of rats; assay type: in vivo; conditions: male, rat, SD rats, p.o. 5.0 mg/kg, plasma
quantity: Tmax
Please don't drop the unit; write it after the number.

# get_value(readout='Tmax', item= Cn1ncc2cc(-c3c(C#N)cc(N4CCCNCC4)nc3-c3ccc(C#N)c(F)c3)ccc21 )
4.67 h

Give the measured Tmax of COc1ccc(-c2c(C#N)cc(C3CCC(N)CC3)nc2-c2ccc(C#N)c(F)c2)cc1F (stereo not shown) .
4.67 h

Record request: Tmax value, item Cn1ncc2cc(-c3c(C#N)cc(N4CCC(N)CC4)nc3-c3ccc(C#N)c(F)c3)ccc21
6 h

Could you share which Tmax value was measured for CC(C)(O)Cn1nc(F)c2cc(-c3c(C#N)cc(N4CCC(N)CC4)nc3-c3ccc(C#N)c(F)c3)c(F)cc21 ?
4.67 h

If you can, please state the reported Tmax value of COc1ccc(-c2c(C#N)cc(N3CCCNCC3)nc2-c2ccc(C#N)c(F)c2)cc1F .
6 h

// query Tmax value for entry CC(C)(O)Cn1ncc2cc(-c3c(C#N)cc(N4CCC(N)CC4)nc3-c3ccc(C#N)c(F)c3)c(F)cc21
4 h

Report Tmax for COc1ccc(-c2c(C#N)cc(N3CCC(N)CC3)nc2-c2ccc(C#N)c(F)c2)cc1F please.
6 h

Can you look up the measured Tmax of COc1ccc(-c2c(-c3ccc(C#N)c(F)c3)nc(N3CCC(N)CC3)n(C)c2=O)cc1F [CC-90011, reference compound] for me?
3.33 h

Using the record for CN1C(=O)Cc2cc(-c3c(C#N)cc(N4CCC(N)CC4)nc3-c3ccc(C#N)c(F)c3)ccc21 , report its Tmax.
4 h

Return reported Tmax; argument: CC(C)(O)Cn1ncc2cc(-c3c(C#N)cc(N4CCCNCC4)nc3-c3ccc(C#N)c(F)c3)c(F)cc21
4.67 h

* * *

test: Pharmacokinetics of oral administration of rats; format: in vivo; settings: male, rat, SD rats, p.o. 5.0 mg/kg, plasma
Classification field: enter Yes for half-life values not below 300 min, No for values below it.

Hi team, for COc1ccc(-c2c(C#N)cc(N3CCC(N)CC3)nc2-c2ccc(C#N)c(F)c2)cc1F , is the recorded half-life at or above 300 min?
Yes

Reported half-life at or above 300 min? CC(C)(O)Cn1nc(F)c2cc(-c3c(C#N)cc(N4CCC(N)CC4)nc3-c3ccc(C#N)c(F)c3)c(F)cc21
No

Threshold query (half-life >= 300 min) on Cn1ncc2cc(-c3c(C#N)cc(N4CCCNCC4)nc3-c3ccc(C#N)c(F)c3)ccc21
No

Could you please find out whether CC(C)(O)Cn1ncc2cc(-c3c(C#N)cc(N4CCC(N)CC4)nc3-c3ccc(C#N)c(F)c3)c(F)cc21 has half-life that meets 300 min or exceeds it?
No

Does COc1ccc(-c2c(C#N)cc(N3CCCNCC3)nc2-c2ccc(C#N)c(F)c2)cc1F have a reported half-life of at least 300 min?
Yes

Check this molecule for half-life at or above 300 min: CN1C(=O)Cc2cc(-c3c(C#N)cc(N4CCC(N)CC4)nc3-c3ccc(C#N)c(F)c3)ccc21
No

Is it the case that Cn1ncc2cc(-c3c(C#N)cc(N4CCC(N)CC4)nc3-c3ccc(C#N)c(F)c3)ccc21 has half-life reaching or exceeding 300 min?
Yes

* * *

assay: Pharmacokinetics of oral and intravenous administration of rats; type: in vivo; conditions: male, rat, plasma, po; SD rats, p.o. 5.0 mg/kg, 0.5% sodium methylcellulose aqueous solution
Provide the recorded Tmax for the entries that follow.
Note: unit h is implicit; provide only the numeric part.

What measured Tmax goes with COc1ccc(-c2c(-c3ccc(C#N)c(F)c3)nc(N3CCC(N)CC3)n(C)c2=O)cc1F [CC-90011, reference compound] ?
2.67

Given the compound CC(C)(O)Cn1ncc2cc(-c3c(C#N)cc(N4CCC(N)CC4)nc3-c3ccc(C#N)c(F)c3)c(F)cc21 , what is its reported Tmax?
4

* * *

experiment: Pharmacokinetics of oral and intravenous administration of rats; assay type: in vivo; settings: male, rat, plasma, iv; SD rats, i.v. 5.0 mg/kg, 5% DMSO+10% Solutol+85% Saline
Task for the reader: assign each of the following compounds its reported Cmax.
Your answer is read as µg/mL, so omit the unit and give the number.

Data request, read-out Cmax, for CC(C)(O)Cn1ncc2cc(-c3c(C#N)cc(N4CCC(N)CC4)nc3-c3ccc(C#N)c(F)c3)c(F)cc21
0.765

For COc1ccc(-c2c(-c3ccc(C#N)c(F)c3)nc(N3CCC(N)CC3)n(C)c2=O)cc1F [CC-90011, reference compound] , what is its reported Cmax?
0.895

* * *

assay: Pharmacokinetics of oral administration of mice under different solvent conditions; format: in vivo; details: male, Balb/c, mouse, plasma, 5 mg/kg, p.o. 5.0 mg/kg, solvent 5% DMSO + 10% Solutol + 85% Saline
quantity: Cmax (ng/mL)
Value expressed in ng/mL; do not type the unit.

Any idea what Cmax was measured for CC(C)(O)Cn1ncc2cc(-c3c(C#N)cc(N4CCC(N)CC4)nc3-c3ccc(C#N)c(F)c3)c(F)cc21 [Compound 16] ?
612

Name the reported Cmax value associated with the compound COc1ccc(-c2c(-c3ccc(C#N)c(F)c3)nc(N3CCC(N)CC3)n(C)c2=O)cc1F [CC-90011, reference compound]
173

* * *

test: Pharmacokinetics of oral administration of mice under different solvent conditions; assay type: in vivo; conditions: male, Balb/c, mouse, plasma, 5 mg/kg, p.o. 5.0 mg/kg, solvent 5% DMSO + 10% Solutol + 85% Saline
quantity: Tmax (h)
Kindly provide the numeric value in h only, without the unit symbol.

// lookup Tmax for COc1ccc(-c2c(-c3ccc(C#N)c(F)c3)nc(N3CCC(N)CC3)n(C)c2=O)cc1F [CC-90011, reference compound]
1

Record request: Tmax value, item CC(C)(O)Cn1ncc2cc(-c3c(C#N)cc(N4CCC(N)CC4)nc3-c3ccc(C#N)c(F)c3)c(F)cc21
2.67

* * *

biological target: hERG ion channel (Homo sapiens, UniProt Q12809); test: In-vitro hERG inhibitory activity (whole cell patch clamp, HEK293 cells); conditions: HEK293 cells stably expressing hERG channels, read-out: IC50 on hERG current
Sequence (Q12809 whole entry): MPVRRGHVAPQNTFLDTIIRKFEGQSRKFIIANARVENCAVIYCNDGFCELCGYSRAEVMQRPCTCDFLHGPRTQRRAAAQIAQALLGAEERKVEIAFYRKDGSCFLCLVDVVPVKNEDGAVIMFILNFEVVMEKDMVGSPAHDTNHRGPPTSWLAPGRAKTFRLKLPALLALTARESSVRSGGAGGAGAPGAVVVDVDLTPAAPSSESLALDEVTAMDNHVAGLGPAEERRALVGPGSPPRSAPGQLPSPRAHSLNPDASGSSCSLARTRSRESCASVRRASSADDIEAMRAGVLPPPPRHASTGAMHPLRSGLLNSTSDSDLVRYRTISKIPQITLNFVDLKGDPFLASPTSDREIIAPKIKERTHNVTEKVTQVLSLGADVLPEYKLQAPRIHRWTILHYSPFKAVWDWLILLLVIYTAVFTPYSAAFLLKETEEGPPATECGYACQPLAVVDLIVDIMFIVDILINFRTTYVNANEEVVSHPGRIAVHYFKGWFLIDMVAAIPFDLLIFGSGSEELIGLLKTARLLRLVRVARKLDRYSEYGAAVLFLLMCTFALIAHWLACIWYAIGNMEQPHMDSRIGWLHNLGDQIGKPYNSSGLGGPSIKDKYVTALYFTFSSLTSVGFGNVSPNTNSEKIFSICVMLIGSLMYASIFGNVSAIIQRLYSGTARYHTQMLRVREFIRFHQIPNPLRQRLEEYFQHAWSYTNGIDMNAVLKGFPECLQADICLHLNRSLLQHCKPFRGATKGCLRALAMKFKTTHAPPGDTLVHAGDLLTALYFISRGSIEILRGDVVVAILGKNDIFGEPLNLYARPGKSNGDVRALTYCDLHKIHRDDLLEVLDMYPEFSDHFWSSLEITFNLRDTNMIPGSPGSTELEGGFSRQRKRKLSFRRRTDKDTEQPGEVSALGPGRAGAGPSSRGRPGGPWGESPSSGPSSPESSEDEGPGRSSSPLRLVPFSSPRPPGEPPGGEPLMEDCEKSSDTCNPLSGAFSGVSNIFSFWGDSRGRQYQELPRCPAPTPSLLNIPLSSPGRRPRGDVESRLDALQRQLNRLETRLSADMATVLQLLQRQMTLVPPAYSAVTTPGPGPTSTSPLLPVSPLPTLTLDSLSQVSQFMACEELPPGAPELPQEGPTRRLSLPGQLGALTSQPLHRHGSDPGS
pIC50: −log10 of the molar value.
quantity: pIC50

Request - read-out pIC50 | tested on hERG ion channel (Homo sapiens, UniProt Q12809) | compound CC(C)(O)Cn1ncc2cc(-c3c(C#N)cc(N4CCC(N)CC4)nc3-c3ccc(C#N)c(F)c3)c(F)cc21
< 5.00

* * *

experiment: Pharmacokinetics of oral administration of rats; type: in vivo; conditions: male, rat, SD rats, p.o. 5.0 mg/kg, plasma
quantity: AUC(0-t) (ng·h/mL)
// units = ng·h/mL; emit number, no label

# lookup: AUC(0-t) of Cn1ncc2cc(-c3c(C#N)cc(N4CCCNCC4)nc3-c3ccc(C#N)c(F)c3)ccc21
1410

Which AUC(0-t) reading was recorded for the molecule COc1ccc(-c2c(C#N)cc(C3CCC(N)CC3)nc2-c2ccc(C#N)c(F)c2)cc1F (stereo not drawn) ?
1470

Data request, read-out AUC(0-t), for CC(C)(O)Cn1ncc2cc(-c3c(C#N)cc(N4CCC(N)CC4)nc3-c3ccc(C#N)c(F)c3)c(F)cc21
561

* * *

quantity: pIC50
Please keep in mind that pIC50 is minus log10 of the molar concentration; only the number is needed.

Notebook: pull reported pIC50 for LSD1 (Homo sapiens), entry Cn1ncc2cc(-c3c(-c4ccc(C#N)c(F)c4)nc(N4CCC(N)CC4)c4c3CNC4=O)ccc21 [Compound 8]
8.19

Test system LSD1 (Homo sapiens); read-out pIC50; what value for CC(C)(O)Cn1nc(F)c2cc(-c3c(C#N)cc(N4CCC(N)CC4)nc3-c3ccc(C#N)c(F)c3)c(F)cc21 [Compound 36] ?
9.35

Which pIC50 is reported with LSD1 (Homo sapiens) for this entry: CN(C)C(=O)c1cc(-c2ccc3c(cnn3C)c2)c(-c2ccc(C#N)c(F)c2)nc1N1CCCNCC1 [Compound 27] ?
8.48

What value of pIC50 on LSD1 (Homo sapiens) does CN1C(=O)C(F)(F)c2cc(-c3c(C#N)cc(N4CCC(N)CC4)nc3-c3ccc(C#N)c(F)c3)ccc21 [Compound 34] have?
8.82
